system_under_test: MBP-FoxP1dN (Mus musculus, UniProt P58462 326-579)
Sequence: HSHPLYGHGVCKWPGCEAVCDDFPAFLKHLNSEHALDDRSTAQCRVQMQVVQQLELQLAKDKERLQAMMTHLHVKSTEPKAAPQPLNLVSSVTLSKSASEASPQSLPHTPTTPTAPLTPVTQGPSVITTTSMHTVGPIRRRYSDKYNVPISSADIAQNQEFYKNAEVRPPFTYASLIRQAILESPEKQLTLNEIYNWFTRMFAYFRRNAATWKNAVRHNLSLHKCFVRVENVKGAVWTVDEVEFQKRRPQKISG
assay: PD-seq (MBP pull-down with sequencing); 20 mM Tris-HCl pH 7.5, 100 mM NaCl, 1.5 mM MgCl2, 0.4 uM protein, 0.1 uM dsDNA library, 30 min, room temperature, amylose pull-down; high values mean tight binding
experimental_parameters: protein: recombinant; tags: His6-MBP; chain copies: 2; dsDNA, one strand shown
Over roughly 16,000 sequences, “rpm ratio (pull-down/input)” has its median near 0.94; the highest 2% begin near 1.7. This is one part of a sample in which the highest values are shown more often than they occur.
property_label: binding signal

See these solved cases before continuing.
GATGATTGTTCTCCCAGCTGATGAATTATGTATATCGAGTAAACAAATTTTCCTAATCTTTCTGTTCAAGCGCCATCTAC | 1.79 RPM ratio (pull-down/input)
GATGATTGTTCTCCCAGCTGATGAATTTCTGCAGTCGAGTAAACAAATTTTCCTAATCTTTCTGTTCAAGCGCCATCTAC | 0.883 RPM ratio (pull-down/input)
GATGATTGTTCTCCCAGCTGATGAATTTATTTGGTCGAGTAAACAAATTTTCCTAATCTTTCTGTTCAAGCGCCATCTAC | 1.59 RPM ratio (pull-down/input)
GATGATTGTTCTCCCAGCTGATGAATTCCTCAGATCGAGTAAACAAATTTTCCTAATCTTTCTGTTCAAGCGCCATCTAC | 0.761 RPM ratio (pull-down/input)
GATGATTGTTCTCCCAGCTGATGAATTTATTCTGTCGAGTAAACAAATTTTCCTAATCTTTCTGTTCAAGCGCCATCTAC | 1.12 RPM ratio (pull-down/input)

Annotate the sequence GATGATTGTTCTCCCAGCTGATGAATTATTTTTGTCGAGTAAACAAATTTTCCTAATCTTTCTGTTCAAGCGCCATCTAC with its measured binding signal.
1.37 RPM ratio (pull-down/input)

Give the reported value of binding signal for this record: GATGATTGTTCTCCCAGCTGATGAATTGATTGTGTCGAGTAAACAAATTTTCCTAATCTTTCTGTTCAAGCGCCATCTAC
1.35 RPM ratio (pull-down/input)

Answer with the recorded binding signal for the sequence listed here: GATGATTGTTCTCCCAGCTGATGAATTTATTTTGTCGAGTAAACAAATTTTCCTAATCTTTCTGTTCAAGCGCCATCTAC
1.62 RPM ratio (pull-down/input)

* * *

system_under_test: MBP-FoxP1dN (Mus musculus, UniProt P58462 326-579)
Sequence: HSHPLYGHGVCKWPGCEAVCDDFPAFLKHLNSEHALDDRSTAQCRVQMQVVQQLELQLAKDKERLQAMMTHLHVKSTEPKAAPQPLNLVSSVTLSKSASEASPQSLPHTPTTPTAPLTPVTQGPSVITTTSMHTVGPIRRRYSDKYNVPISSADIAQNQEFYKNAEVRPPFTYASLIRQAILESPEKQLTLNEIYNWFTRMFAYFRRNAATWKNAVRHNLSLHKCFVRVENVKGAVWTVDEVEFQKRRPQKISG
assay: PD-seq (MBP pull-down with sequencing); 20 mM Tris-HCl pH 7.5, 100 mM NaCl, 1.5 mM MgCl2, 0.4 uM protein, 0.1 uM dsDNA library, 30 min, room temperature, amylose pull-down; high values mean tight binding
experimental_parameters: protein: recombinant; tags: His6-MBP; chain copies: 2; dsDNA, one strand shown
The full ranking holds about 16,000 sequences; the median of “rpm ratio (pull-down/input)” is about 0.94, and the highest 2% start at about 1.7. This is one part of a sample in which the highest values are shown more often than they occur.
property_label: binding signal

GATGATTGTTCTCCCAGCTGATGAATTATGACAATCGAGTAAACAAATTTTCCTAATCTTTCTGTTCAAGCGCCATCTAC | 1.38 RPM ratio (pull-down/input)
GATGATTGTTCTCCCAGCTGATGAATTTATATCATCGAGTAAACAAATTTTCCTAATCTTTCTGTTCAAGCGCCATCTAC | 1.27 RPM ratio (pull-down/input)
GATGATTGTTCTCCCAGCTGATGAATTGAGATTTTCGAGTAAACAAATTTTCCTAATCTTTCTGTTCAAGCGCCATCTAC | 0.923 RPM ratio (pull-down/input)

Turning to the following sequence.
Please look at this sequence and report its binding signal: GATGATTGTTCTCCCAGCTGATGAATTGGTGCATTCGAGTAAACAAATTTTCCTAATCTTTCTGTTCAAGCGCCATCTAC
1.35 RPM ratio (pull-down/input)

* * *

Each entry below lists one item and its recorded binding signal value.
system_under_test: MBP-FoxP1dN (Mus musculus, UniProt P58462 326-579)
Sequence: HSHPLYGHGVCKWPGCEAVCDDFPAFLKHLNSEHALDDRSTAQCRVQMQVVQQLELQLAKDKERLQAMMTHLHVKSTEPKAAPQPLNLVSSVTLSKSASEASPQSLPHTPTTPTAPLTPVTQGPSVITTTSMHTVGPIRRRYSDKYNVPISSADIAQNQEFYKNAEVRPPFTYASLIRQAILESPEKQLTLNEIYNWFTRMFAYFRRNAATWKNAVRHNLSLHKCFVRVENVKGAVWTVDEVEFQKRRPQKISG
assay: PD-seq (MBP pull-down with sequencing); 20 mM Tris-HCl pH 7.5, 100 mM NaCl, 1.5 mM MgCl2, 0.4 uM protein, 0.1 uM dsDNA library, 30 min, room temperature, amylose pull-down; high values mean tight binding
experimental_parameters: protein: recombinant; tags: His6-MBP; chain copies: 2; dsDNA, one strand shown
Over roughly 16,000 sequences, “rpm ratio (pull-down/input)” has its median near 0.94; the highest 2% begin near 1.7. The list comes from a sample in which the highest values are over-represented; it also holds close analogues and randomly drawn sequences.

Solved cases (3 shown):
GATGATTGTTCTCCCAGCTGATGAATTTTGAACTTCGAGTAAACAAATTTTCCTAATCTTTCTGTTCAAGCGCCATCTAC | 0.94 RPM ratio (pull-down/input)
GATGATTGTTCTCCCAGCTGATGAATTTTAGGGGTCGAGTAAACAAATTTTCCTAATCTTTCTGTTCAAGCGCCATCTAC | 0.805 RPM ratio (pull-down/input)
GATGATTGTTCTCCCAGCTGATGAATTATAAGTATCGAGTAAACAAATTTTCCTAATCTTTCTGTTCAAGCGCCATCTAC | 1.19 RPM ratio (pull-down/input)

Now, please, on to the next sequence.
// Input: GATGATTGTTCTCCCAGCTGATGAATTCTCAACCTCGAGTAAACAAATTTTCCTAATCTTTCTGTTCAAGCGCCATCTAC . Output its binding signal only.
0.795 RPM ratio (pull-down/input)

* * *

system_under_test: MBP-FoxP1dN (Mus musculus, UniProt P58462 326-579)
Sequence: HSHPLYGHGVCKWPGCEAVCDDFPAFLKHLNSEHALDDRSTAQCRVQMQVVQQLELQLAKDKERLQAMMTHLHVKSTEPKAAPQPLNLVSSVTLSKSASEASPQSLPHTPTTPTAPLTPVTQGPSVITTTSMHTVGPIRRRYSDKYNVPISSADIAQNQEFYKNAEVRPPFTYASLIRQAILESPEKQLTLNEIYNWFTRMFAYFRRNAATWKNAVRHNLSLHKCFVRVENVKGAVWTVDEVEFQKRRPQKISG
assay: PD-seq (MBP pull-down with sequencing); 20 mM Tris-HCl pH 7.5, 100 mM NaCl, 1.5 mM MgCl2, 0.4 uM protein, 0.1 uM dsDNA library, 30 min, room temperature, amylose pull-down; high values mean tight binding
experimental_parameters: protein: recombinant; tags: His6-MBP; chain copies: 2; dsDNA, one strand shown
The full ranking holds about 16,000 sequences; the median of “rpm ratio (pull-down/input)” is about 0.94, and the highest 2% start at about 1.7. The sample holds the highest values, similar sequences and a random draw of the others, so the mix is not that of the screen.
Form field: binding signal (one value per entry).

Look up and report binding signal, with MBP-FoxP1dN (Mus musculus, UniProt P58462 326-579) as system, for GATGATTGTTCTCCCAGCTGATGAATTTTGGCGATCGAGTAAACAAATTTTCCTAATCTTTCTGTTCAAGCGCCATCTAC
0.955 RPM ratio (pull-down/input)

* * *

system_under_test: MBP-FoxP1dN (Mus musculus, UniProt P58462 326-579)
Sequence: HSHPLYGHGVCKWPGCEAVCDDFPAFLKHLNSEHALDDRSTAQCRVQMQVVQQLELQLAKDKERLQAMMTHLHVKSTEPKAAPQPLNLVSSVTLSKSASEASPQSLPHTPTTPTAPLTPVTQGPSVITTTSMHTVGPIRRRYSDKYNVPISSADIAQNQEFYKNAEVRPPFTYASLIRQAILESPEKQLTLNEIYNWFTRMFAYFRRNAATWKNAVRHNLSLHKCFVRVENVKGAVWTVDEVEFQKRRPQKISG
assay: PD-seq (MBP pull-down with sequencing); 20 mM Tris-HCl pH 7.5, 100 mM NaCl, 1.5 mM MgCl2, 0.4 uM protein, 0.1 uM dsDNA library, 30 min, room temperature, amylose pull-down; high values mean tight binding
experimental_parameters: protein: recombinant; tags: His6-MBP; chain copies: 2; dsDNA, one strand shown
In all, about 16,000 sequences were measured (“rpm ratio (pull-down/input)”: median about 0.94, highest 2% from about 1.7 on). The full list was thinned out, with the highest values kept by preference.
binding signal: recorded values

Illustrative cases are given below, each with its answer.
GATGATTGTTCTCCCAGCTGATGAATTTATCGTATCGAGTAAACAAATTTTCCTAATCTTTCTGTTCAAGCGCCATCTAC | 1.22 RPM ratio (pull-down/input)
GATGATTGTTCTCCCAGCTGATGAATTTATTGTATCGAGTAAACAAATTTTCCTAATCTTTCTGTTCAAGCGCCATCTAC | 1.6 RPM ratio (pull-down/input)
GATGATTGTTCTCCCAGCTGATGAATTGAAATTATCGAGTAAACAAATTTTCCTAATCTTTCTGTTCAAGCGCCATCTAC | 1.01 RPM ratio (pull-down/input)
GATGATTGTTCTCCCAGCTGATGAATTAGTGTTATCGAGTAAACAAATTTTCCTAATCTTTCTGTTCAAGCGCCATCTAC | 1.8 RPM ratio (pull-down/input)
GATGATTGTTCTCCCAGCTGATGAATTGTCATCATCGAGTAAACAAATTTTCCTAATCTTTCTGTTCAAGCGCCATCTAC | 1.34 RPM ratio (pull-down/input)

Return reported binding signal. Input sequence: GATGATTGTTCTCCCAGCTGATGAATTTGAATTATCGAGTAAACAAATTTTCCTAATCTTTCTGTTCAAGCGCCATCTAC
0.969 RPM ratio (pull-down/input)

Look up and state reported binding signal for GATGATTGTTCTCCCAGCTGATGAATTGTATTTATCGAGTAAACAAATTTTCCTAATCTTTCTGTTCAAGCGCCATCTAC
2.72 RPM ratio (pull-down/input)
